# Tested on: tet operator sequence
# Assay Info: β-galactosidase activity of a tetracycline-regulated promoter in transformed E. coli with revTetR, in the presence and absence of anhydrotetracycline (atc)
# Format: cell-based, Escherichia coli
# Test Parameters: RevTetR isolate cultured in the absence of anhydrotetracycline (ATC)
# Description: The relative activity of revTetR repressors was determined at 28° C. and 37° C. for each clone by measuring β-galactosidase activity of a tetracycline-regulated promoter in transformed Escherichia coli in the presence and absence of the tetracycline analog, anhydrotetracycline (atc). The relative β-galactosidase activity was measured in standard Miller units and is presented as the percent of maximal expression as measured in the absence of Tet repressor. […]
Hi there, I'd appreciate the recorded β-Galactosidase Activity, Cultured Without ATC for every entry that follows.
Give the value as a plain number.

[Q] Quick one: β-Galactosidase Activity, Cultured Without ATC of TetRrevAtc4-25: revTetR(BD) K48K V57L E58V I59T L60F R62S (protein, Modified tetracycline repressor, revTetR(BD) K48K V57L E58V I59T L60F R62S) MSRLDKSKVINSALELLNEVGIEGLTTRKLAQKLGVEQPTLYWHVKNKRALLDALALVTFASHHDYSLPAAGESWQSFLRNNAMSFRRALLRYRDGAKVHLGTRPDEKQYDTVETQLRFMTENGFSLRDGLYAISAVSHFTLGAVLEQQEHTAALTDRPAAPDENLPPLLREALQIMDSDDGEQAFLHGLESLIRGFEVQLTALLQIV ?
[A] 98.629

[Q] Follow-up entry: TetRrevAtc4-4: revTetR(BD) I59S R62S (protein, Modified tetracycline repressor, revTetR(BD) I59S R62S) MSRLDKSKVINSALELLNEVGIEGLTTRKLAQKLGVEQPTLYWHVKNKRALLDALAVESLASHHDYSLPAAGESWQSFLRNNAMSFRRALLRYRDGAKVHLGTRPDEKQYDTVETQLRFMTENGFSLRDGLYAISAVSHFTLGAVLEQQEHTAALTDRPAAPDENLPPLLREALQIMDSDDGEQAFLHGLESLIRGFEVQLTALLQIV
[A] 70.5665
